# assay overview: Plasma concentration (pharmacokinetic) experiment of 177Lu-labelled compounds
# assay context: SD, rat, whole blood, iv, total radioactivity, AUCINF_obs, SD rat, tail vein, blood
Numbered stars: 1 amine (or outer) side, 2 acyl side, 3 side chain; on linkers, the order of the positions; unused ones are H or OH. Bridge positions count the residues as written; N and C are the ends. Square brackets hold non-standard residues; d marks the D form. Peptide text beside a SMILES is read from it. * marks the point of attachment. TBMB(SCH2CH2NH-DOTA) = O=C(O)CN1CCN(CC(=O)O)CCN(CC(=O)NCCSCc2cc(C[*:1])cc(C[*:2])c2)CCN(CC(=O)O)CC1; Phe(2-CF3) = N[C@@H](Cc1ccccc1C(F)(F)F)C(=O)O; Hyp = O=C(O)[C@@H]1C[C@@H](O)CN1; Hexanoyl = CCCCCC(=O)*; Aib = CC(C)(N)C(=O)O
value type: tissue uptake
Keep it simple and answer with nothing but the number.

Given item CCCCCC(=O)N[C@H]1CSCc2cc(CSCCNC(=O)CN3CCN(CC(=O)O)CCN(CC(=O)O)CCN(CC(=O)O)CC3)cc(c2)CSC[C@@H](C(=O)O)NC(=O)[C@H](Cc2ccccc2C(F)(F)F)NC(=O)[C@H](CCC(N)=O)NC(=O)[C@H]([C@@H](C)O)NC(=O)[C@@H]2C[C@@H](O)CN2C(=O)[C@@H]2CCCN2C(=O)C(C)(C)NC1=O [^177Lu-DOTA-09, metal not drawn] (Hexanoyl-C[Aib]P[Hyp]TQ[Phe(2-CF3)]C-OH; linker 1-8 via TBMB(SCH2CH2NH-DOTA)) , the value recorded as its tissue uptake is 5.28

* * *

# target or system: UniProt Q12884
# Sequence (Q12884 1-760): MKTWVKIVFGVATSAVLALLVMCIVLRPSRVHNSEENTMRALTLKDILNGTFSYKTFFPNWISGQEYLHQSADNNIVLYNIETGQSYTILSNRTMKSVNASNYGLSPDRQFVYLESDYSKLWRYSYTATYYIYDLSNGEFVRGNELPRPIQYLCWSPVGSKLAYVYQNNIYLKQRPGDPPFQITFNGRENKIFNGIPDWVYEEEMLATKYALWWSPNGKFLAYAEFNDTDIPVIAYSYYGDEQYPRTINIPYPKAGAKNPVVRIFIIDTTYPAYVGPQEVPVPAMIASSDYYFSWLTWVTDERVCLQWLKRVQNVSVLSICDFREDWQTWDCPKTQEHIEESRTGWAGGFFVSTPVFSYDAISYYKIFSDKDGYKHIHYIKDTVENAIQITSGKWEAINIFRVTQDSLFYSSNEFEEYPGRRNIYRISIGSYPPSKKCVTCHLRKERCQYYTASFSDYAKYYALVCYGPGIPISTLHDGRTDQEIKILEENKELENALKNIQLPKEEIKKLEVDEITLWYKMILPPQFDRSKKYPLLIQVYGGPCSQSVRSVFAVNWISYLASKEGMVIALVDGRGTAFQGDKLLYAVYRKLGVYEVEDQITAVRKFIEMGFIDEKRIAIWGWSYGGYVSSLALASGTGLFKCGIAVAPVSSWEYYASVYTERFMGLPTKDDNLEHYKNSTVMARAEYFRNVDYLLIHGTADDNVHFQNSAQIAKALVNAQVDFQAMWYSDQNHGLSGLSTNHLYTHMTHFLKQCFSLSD
Numbered stars: 1 amine (or outer) side, 2 acyl side, 3 side chain; on linkers, the order of the positions; unused ones are H or OH. Bridge positions count the residues as written; N and C are the ends. Square brackets hold non-standard residues; d marks the D form. Peptide text beside a SMILES is read from it. * marks the point of attachment. TBMB(SCH2CH2NH-DOTA) = O=C(O)CN1CCN(CC(=O)O)CCN(CC(=O)NCCSCc2cc(C[*:1])cc(C[*:2])c2)CCN(CC(=O)O)CC1; Pro(trans-4-F) = O=C(O)[C@@H]1C[C@@H](F)CN1; Phe(4-F) = N[C@@H](Cc1ccc(F)cc1)C(=O)O; Phe(2-F) = N[C@@H](Cc1ccccc1F)C(=O)O; Hyp = O=C(O)[C@@H]1C[C@@H](O)CN1; Hexanoyl = CCCCCC(=O)*; Aib = CC(C)(N)C(=O)O
value type: IC50 (nM)
Hi! Could you send only the number? It should be in nM, unit omitted.

Use these answered entries as a reference point.
>  <molecule>
CCCCCC(=O)N[C@H]1CSCc2cc(CSCCNC(=O)CN3CCN(CC(=O)O)CCN(CC(=O)O)CC3)cc(c2)CSC[C@@H](C(=O)O)NC(=O)[C@H](Cc2ccccc2)NC(=O)[C@H](CCC(N)=O)NC(=O)[C@H]([C@@H](C)O)NC(=O)[C@@H]2CCCN2C(=O)[C@@H]2CCCN2C1=O [NOTA-2286, reference compound]

>  <target or system>
UniProt Q12884

>  <value type>
IC50

>  <uom>
nM

>  <val>
0.59

$$$$
>  <molecule>
CCCCCC(=O)N[C@H]1CSCc2cc(CSCCNC(=O)CN3CCN(CC(=O)O)CCN(CC(=O)O)CCN(CC(=O)O)CC3)cc(c2)CSC[C@@H](C(=O)O)NC(=O)[C@H](Cc2ccc(F)cc2)NC(=O)[C@H](CCC(N)=O)NC(=O)[C@H]([C@@H](C)O)NC(=O)[C@@H]2C[C@@H](O)CN2C(=O)[C@@H]2CCCN2C(=O)C(C)(C)NC1=O [DOTA-08] (Hexanoyl-C[Aib]P[Hyp]TQ[Phe(4-F)]C-OH; linker 1-8 via TBMB(SCH2CH2NH-DOTA))

>  <target or system>
UniProt Q12884

>  <value type>
IC50

>  <uom>
nM

>  <val>
0.53

$$$$

Next item in the queue.
// IC50 lookup, molecule = CCCCCC(=O)N[C@H]1CSCc2cc(CSCCNC(=O)CN3CCN(CC(=O)O)CCN(CC(=O)O)CCN(CC(=O)O)CC3)cc(c2)CSC[C@@H](C(=O)O)NC(=O)[C@H](Cc2ccccc2F)NC(=O)[C@H](CCC(N)=O)NC(=O)[C@H]([C@@H](C)O)NC(=O)[C@@H]2C[C@@H](F)CN2C(=O)[C@@H]2CCCN2C(=O)C(C)(C)NC1=O [DOTA-13] (Hexanoyl-C[Aib]P[Pro(trans-4-F)]TQ[Phe(2-F)]C-OH; linker 1-8 via TBMB(SCH2CH2NH-DOTA)) , result: 1.09

* * *

# target or system: FAPα (Homo sapiens)
Numbered stars: 1 amine (or outer) side, 2 acyl side, 3 side chain; on linkers, the order of the positions; unused ones are H or OH. Bridge positions count the residues as written; N and C are the ends. Square brackets hold non-standard residues; d marks the D form. Peptide text beside a SMILES is read from it. * marks the point of attachment. TBMB(SCH2CH2NH-DOTA) = O=C(O)CN1CCN(CC(=O)O)CCN(CC(=O)NCCSCc2cc(C[*:1])cc(C[*:2])c2)CCN(CC(=O)O)CC1; X1 = O=C(O)CN1CCN(CC(=O)O)CCN(CC(=O)NCCSCc2cc(C[*:1])cc(C[*:2])c2)CC1; Phe(3-F) = N[C@@H](Cc1cccc(F)c1)C(=O)O; Phe(2-F) = N[C@@H](Cc1ccccc1F)C(=O)O; Hyp = O=C(O)[C@@H]1C[C@@H](O)CN1; Hexanoyl = CCCCCC(=O)*; Aib = CC(C)(N)C(=O)O
value type: IC50 (nM)
Please give a number only; it is taken to be in nM.

Below are worked cases with known answers.
>  <compound>
CCCCCC(=O)N[C@H]1CSCc2cc(CSCCNC(=O)CN3CCN(CC(=O)O)CCN(CC(=O)O)CC3)cc(c2)CSC[C@@H](C(=O)O)NC(=O)[C@H](Cc2ccccc2F)NC(=O)[C@H](CCC(N)=O)NC(=O)[C@H]([C@@H](C)O)NC(=O)[C@@H]2C[C@@H](O)CN2C(=O)[C@@H]2CCCN2C(=O)C(C)(C)NC1=O [NOTA-06] (Hexanoyl-C[Aib]P[Hyp]TQ[Phe(2-F)]C-OH; linker 1-8 via X1)

>  <IC50, nM>
0.088

$$$$
>  <compound>
CCCCCC(=O)N[C@H]1CSCc2cc(CSCCNC(=O)CN3CCN(CC(=O)O)CCN(CC(=O)O)CCN(CC(=O)O)CC3)cc(c2)CSC[C@@H](C(=O)O)NC(=O)[C@H](Cc2cccc(F)c2)NC(=O)[C@H](CCC(N)=O)NC(=O)[C@H]([C@@H](C)O)NC(=O)[C@@H]2C[C@@H](O)CN2C(=O)[C@@H]2CCCN2C(=O)C(C)(C)NC1=O [DOTA-07] (Hexanoyl-C[Aib]P[Hyp]TQ[Phe(3-F)]C-OH; linker 1-8 via TBMB(SCH2CH2NH-DOTA))

>  <IC50, nM>
1.5

$$$$

Case CCCCCC(=O)N[C@H]1CSCc2cc(CSCCNC(=O)CN3CCN(CC(=O)O)CCN(CC(=O)O)CCN(CC(=O)O)CC3)cc(c2)CSC[C@@H](C(=O)O)NC(=O)[C@H](Cc2ccccc2F)NC(=O)[C@H](CCC(N)=O)NC(=O)[C@H]([C@@H](C)O)NC(=O)[C@@H]2C[C@@H](O)CN2C(=O)[C@@H]2CCCN2C(=O)C(C)(C)NC1=O [DOTA-06] (Hexanoyl-C[Aib]P[Hyp]TQ[Phe(2-F)]C-OH; linker 1-8 via TBMB(SCH2CH2NH-DOTA)) , FAPα (Homo sapiens), IC50 recorded as 0.93

// assay FAPα (Homo sapiens), entry CCCCCC(=O)N[C@H]1CSCc2cc(CSCCNC(=O)CN3CCN(CC(=O)O)CCN(CC(=O)O)CCN(CC(=O)O)CC3)cc(c2)CSC[C@@H](C(=O)O)NC(=O)[C@H](Cc2ccccc2)NC(=O)[C@H](CCC(N)=O)NC(=O)[C@H]([C@@H](C)O)NC(=O)[C@@H]2C[C@@H](O)CN2C(=O)[C@@H]2CCCN2C(=O)C(C)(C)NC1=O [DOTA-05] (Hexanoyl-C[Aib]P[Hyp]TQFC-OH; linker 1-8 via TBMB(SCH2CH2NH-DOTA)) , IC50 value = 1.16

Kindly note: FAPα (Homo sapiens), CCCCCC(=O)N[C@H]1CSCc2cc(CSCCNC(=O)CN3CCN(CC(=O)O)CCN(CC(=O)O)CCN(CC(=O)O)CC3)cc(c2)CSC[C@@H](C(=O)O)NC(=O)[C@H](Cc2ccccc2)NC(=O)[C@H](CCC(N)=O)NC(=O)[C@H]([C@@H](C)O)NC(=O)[C@@H]2CCCN2C(=O)[C@@H]2CCCN2C1=O [FAP-2286, reference compound] , IC50 value reported: 11.7
